Please provide measured pKi for the entries that follow.
Molecular target: UniProt:P61169
Sequence (P61169 whole entry): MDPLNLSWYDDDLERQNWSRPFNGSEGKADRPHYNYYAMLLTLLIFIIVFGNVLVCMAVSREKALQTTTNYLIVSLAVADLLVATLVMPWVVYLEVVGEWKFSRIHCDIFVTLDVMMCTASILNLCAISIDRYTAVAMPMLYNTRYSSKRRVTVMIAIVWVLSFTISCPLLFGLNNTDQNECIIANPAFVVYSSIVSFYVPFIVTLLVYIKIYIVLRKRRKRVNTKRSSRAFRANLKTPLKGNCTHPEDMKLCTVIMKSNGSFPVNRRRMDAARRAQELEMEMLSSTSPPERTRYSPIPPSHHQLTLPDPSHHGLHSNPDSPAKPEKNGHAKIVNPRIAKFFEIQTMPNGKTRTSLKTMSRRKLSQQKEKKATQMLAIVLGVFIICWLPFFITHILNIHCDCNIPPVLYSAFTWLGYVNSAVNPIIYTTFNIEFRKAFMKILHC
Assay: Displacement of [3H]U-86170 from Dopamine receptor D2
pKi: −log10 of the molar value.

Problem: Record request: pKi value, item COCCN1CC[C@H]2c3c(cccc3C(N)=O)CC[C@H]21
Result: < 6.00

Problem: // returns reported pKi for input CCN1CC[C@H]2c3c(cccc3C(N)=O)CC[C@H]21
Result: < 6.00

Problem: May I ask what pKi has been recorded for CCCN1CC[C@H]2c3c(cccc3C(=O)NCc3ccccc3)CC[C@H]21 ?
Result: < 6.00

Problem: So what's the measured pKi for this one? CCCNC(=O)c1cccc2c1[C@@H]1CCN(CCC)[C@@H]1CC2
Result: < 6.00

Problem: Which measured pKi value corresponds to C=CCCN1CC[C@H]2c3c(Br)cccc3CC[C@H]21 ?
Result: 7.26

Problem: Please report the recorded pKi for C=CCN1CC[C@H]2c3c(Br)cccc3CC[C@H]21 .
Result: 8.49

Problem: Quick one: pKi for C=CCN1CC[C@H]2c3c(cccc3C(N)=O)CC[C@H]21 ?
Result: < 6.00

Problem: Fill in: pKi of ClCCCN1CC[C@H]2c3c(Br)cccc3CC[C@H]21 is ___
Result: 7.14

Problem: Which pKi is reported for this molecule? NC(=O)c1cccc2c1[C@@H]1CCN(CC3CC3)[C@@H]1CC2
Result: < 6.00

Problem: Need pKi of FCCCN1CC[C@H]2c3c(Br)cccc3CC[C@H]21 , thanks.
Result: 7.33

Problem: Please give the measured pKi for this molecule: Brc1cccc2c1[C@@H]1CCN(CC3CC3)[C@@H]1CC2
Result: 6.92

Problem: Fill blank: measured pKi of the molecule CCCCN1CC[C@H]2c3c(cccc3C(N)=O)CC[C@H]21 is ____.
Result: < 6.00

Problem: Reported pKi, molecule CN1CC[C@H]2c3c(cccc3C(N)=O)CC[C@H]21 : ____
Result: < 6.00

Problem: Dear colleague, I am looking for the recorded pKi of the following molecule: CC(C)=CCN1CC[C@H]2c3c(cccc3C(N)=O)CC[C@H]21
Result: < 6.00

Problem: Give its pKi value. Item: CC(C)CN1CC[C@H]2c3c(cccc3C(N)=O)CC[C@H]21
Result: < 6.00

Problem: Which measured pKi value corresponds to C#CCN1CC[C@H]2c3c(cccc3C(N)=O)CC[C@H]21 ?
Result: < 6.00

Problem: Endpoint output: pKi of CCCCN1CC[C@H]2c3c(Br)cccc3CC[C@H]21 . Value?
Result: 7.12

Problem: Could you tell me which pKi is on file for NC(=O)c1cccc2c1[C@@H]1CCN(CCCF)[C@@H]1CC2 ?
Result: < 6.00

Problem: Query (molecule): CN1CC[C@H]2c3c(Br)cccc3CC[C@H]21 ; field requested: pKi
Result: 7.39

Problem: Bench note: what pKi did CCCN1CC[C@H]2c3c(cccc3C(N)=O)CC[C@H]21 show?
Result: < 5.79

Problem: Any idea what pKi was measured for C=CCCN1CC[C@H]2c3c(cccc3C(N)=O)CC[C@H]21 ?
Result: < 6.00

Problem: Sample CC(C)=CCN1CC[C@H]2c3c(Br)cccc3CC[C@H]21 — what was its pKi?
Result: 7.74
